Sourced from patent US20230287510A1

Test system: chronic lymphocytic leukemia (CLL) samples classified by expression subtype (Ec-i, EC-m1, EC-m2, EC-m3, EC-m4, EC-o, EC-u1, EC-u2)
Experiment: Ex-vivo drug sensitivity (percent viability) of CLL samples compared between expression subtypes (ECs); also: test concentration or dose not given here
Format: cell-based
Conditions: all ECs other than EC-i

{"SMILES CODE": "Cn1cnc2c(F)c(Nc3ccc(Br)cc3Cl)c(C(=O)NOCCO)cc21", "Mean viability in the other ECs": 0.92}
{"SMILES CODE": "COc1cc(Nc2ncc(F)c(Nc3ccc4c(n3)NC(=O)C(C)(C)O4)n2)cc(OC)c1OC", "Mean viability in the other ECs": 1.03}
{"SMILES CODE": "CN1CCN(CCOc2cc(OC3CCOCC3)c3c(Nc4c(Cl)ccc5c4OCO5)ncnc3c2)CC1", "Mean viability in the other ECs": 1.07}
{"SMILES CODE": "C=C(C)[C@H]1Cc2c(ccc3c2O[C@@H]2COc4cc(OC)c(OC)cc4[C@@H]2C3=O)O1", "Mean viability in the other ECs": 0.77}

====

System: chronic lymphocytic leukemia (CLL) samples classified by expression subtype (Ec-i, EC-m1, EC-m2, EC-m3, EC-m4, EC-o, EC-u1, EC-u2)
Assay: Ex-vivo drug sensitivity (percent viability) of CLL samples compared between expression subtypes (ECs); also: test concentration or dose not given here
Assay type: cell-based
Details: all ECs other than EC-u2
Reported Mean viability in the other ECs values for the following compounds.

{"COMPOUND": "CC[C@H](Nc1ncnc2nc[nH]c12)c1nc2cccc(F)c2c(=O)n1-c1ccccc1 [idelalisib]", "Mean viability in the other ECs": 0.95}
{"COMPOUND": "NC(=O)Nc1cc(-c2cccc(F)c2)sc1C(=O)N[C@H]1CCCNC1 [AZD7762]", "Mean viability in the other ECs": 0.85}
{"COMPOUND": "CC(C)c1cc(C(=O)N2Cc3ccc(CN4CCN(C)CC4)cc3C2)c(O)cc1O [AT13387]", "Mean viability in the other ECs": 0.74}
{"COMPOUND": "C[C@@H]1CN(CC(=O)Nc2ccc3c(c2)Cc2cccc(-c4cc(=O)cc(N5CCOCC5)o4)c2S3)C[C@H](C)O1 [KU-60019]", "Mean viability in the other ECs": 0.97}
{"COMPOUND": "C=CC(=O)Nc1cccc(Nc2nc(Nc3ccc(OCCOC)cc3)ncc2F)c1 [spebrutinib]", "Mean viability in the other ECs": 0.96}
{"COMPOUND": "C=C(C)[C@H]1Cc2c(ccc3c2O[C@@H]2COc4cc(OC)c(OC)cc4[C@@H]2C3=O)O1 [rotenone]", "Mean viability in the other ECs": 0.74}
{"COMPOUND": "CC[C@H]1CN2CCc3cc(OC)c(OC)cc3[C@@H]2C[C@@H]1C[C@H]1NCCc2cc(O)c(OC)cc21 [cephaeline]", "Mean viability in the other ECs": 0.82}
{"COMPOUND": "C[C@H](Nc1ncnc2[nH]cnc12)c1cc2cccc(Cl)c2c(=O)n1-c1ccccc1 [duvelisib]", "Mean viability in the other ECs": 0.89}
{"COMPOUND": "Cn1cnc2c(F)c(Nc3ccc(Br)cc3Cl)c(C(=O)NOCCO)cc21 [selumetinib]", "Mean viability in the other ECs": 0.94}

====

Reported Mean viability in the EC values for the following compounds.
System: chronic lymphocytic leukemia (CLL) samples classified by expression subtype (Ec-i, EC-m1, EC-m2, EC-m3, EC-m4, EC-o, EC-u1, EC-u2)
Experiment: Ex-vivo drug sensitivity (percent viability) of CLL samples compared between expression subtypes (ECs); also: test concentration or dose not given here
Type: cell-based
Conditions: expression cluster EC-m1

{"SMILES CODE": "NC1(c2ccc(-c3nc4ccn5c(=O)[nH]nc5c4cc3-c3ccccc3)cc2)CCC1", "Mean viability in the EC": 1.07}
{"SMILES CODE": "CC(C)c1cc(C(=O)N2Cc3ccc(CN4CCN(C)CC4)cc3C2)c(O)cc1O", "Mean viability in the EC": 0.82}
{"SMILES CODE": "COc1cc2nc(-c3cc(F)ccc3O)nc(N[C@@H]3CNC[C@H]3C(C)(C)O)c2cc1OC", "Mean viability in the EC": 1.11}
{"SMILES CODE": "CN1CCC(CNc2ccc3ncc(-c4cccc(OC(F)(F)F)c4)n3n2)CC1", "Mean viability in the EC": 1.09}
{"SMILES CODE": "COc1cc(N2CCC(N3CCN(C)CC3)CC2)ccc1Nc1ncc(Cl)c(Nc2ccccc2S(=O)(=O)C(C)C)n1", "Mean viability in the EC": 1.07}
